// provenance: patent US20250195521A1

Molecular target: KRAS G12S (Homo sapiens (Human), UniProt P01116+P62937, G12S)
Sequence (P01116 other isoform, or with tags, fused parts or gaps G12S): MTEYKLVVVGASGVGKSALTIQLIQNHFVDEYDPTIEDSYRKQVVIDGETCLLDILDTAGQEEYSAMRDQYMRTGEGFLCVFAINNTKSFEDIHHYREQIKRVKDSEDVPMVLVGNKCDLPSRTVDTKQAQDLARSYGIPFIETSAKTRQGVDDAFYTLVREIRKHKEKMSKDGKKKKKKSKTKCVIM
Sequence (P62937 whole entry): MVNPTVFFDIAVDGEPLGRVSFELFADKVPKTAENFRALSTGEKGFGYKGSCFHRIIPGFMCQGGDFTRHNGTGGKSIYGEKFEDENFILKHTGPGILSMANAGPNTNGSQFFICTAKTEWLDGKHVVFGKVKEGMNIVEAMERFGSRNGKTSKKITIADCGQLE
Assay: Ras-Raf disruption/FRET/MOA assay, KRAS G12S
Assay type: biochemical
PROPERTY_LABEL: IC50

{"columns": ["SMILES_RECORD", "IC50"],
 "data": [
  ["CCn1c(-c2cccnc2[C@H](C)OC)c2c3cc(ccc31)-c1cc(O)cc(c1)C[C@H](NC(=O)[C@H](C(C)C)N(C)C(=O)[C@@]1(C)CCCN1C(=O)[C@H]1CN1)C(=O)N1CCC[C@H](N1)C(=O)OCC(C)(C)C2", "10 to 100 nM"],
  ["CCn1c(-c2cccnc2[C@H](C)OC)c2c3cc(ccc31)-c1cc(O)cc(c1)C[C@H](NC(=O)[C@H](C(C)C)N(C)C(=O)[C@@H]1CO[C@H](C)CN1C(=O)[C@@H]1CN1)C(=O)N1CCC[C@H](N1)C(=O)OCC(C)(C)C2", "10 to 100 nM"],
  ["CCn1c(-c2cnccc2COC)c2c3cc(ccc31)-c1cc(O)cc(c1)C[C@H](NC(=O)[C@H](C(C)C)N(C)C(=O)CN(C)C(=O)[C@H]1N[C@@H]1c1ccccc1)C(=O)N1CCC[C@H](N1)C(=O)OCC(C)(C)C2", "10 to 100 nM"],
  ["CCn1c(-c2cccnc2[C@H](C)OC)c2c3cc(ccc31)-c1cc(O)cc(c1)C[C@H](NC(=O)[C@@H](C(C)C)N(C)C(=O)[C@@]1(C)CCCN1C(=O)[C@@H]1CN1)C(=O)N1CCC[C@H](N1)C(=O)OCC(C)(C)C2", "100 to 1000 nM"],
  ["CCn1c(-c2cccnc2COC)c2c3cc(ccc31)-c1cc(O)cc(c1)C[C@H](NC(=O)[C@H](C(C)C)N(C)C(=O)CCNC(=O)NCCCl)C(=O)N1CCC[C@H](N1)C(=O)OCC(C)(C)C2", "> 10000 nM"]
]}

Prompt: Value wanted: IC50 (KRAS G12S (Homo sapiens (Human), UniProt P01116+P62937, G12S)) of entry CCn1c(-c2cnccc2COC)c2c3cc(ccc31)-c1cc(O)cc(c1)C[C@H](NC(=O)[C@H](C(C)C)N(C)C(=O)CN(C)C(=O)[C@H]1N[C@H]1C(=O)OC)C(=O)N1CCC[C@H](N1)C(=O)OCC(C)(C)C2
Completion: 100 to 1000 nM

Prompt: Field entry: CCn1c(-c2cccnc2[C@H](C)OC)c2c3cc(ccc31)-c1cc(O)cc(c1)C[C@H](NC(=O)[C@@H](C(C)C)N(C)C(=O)[C@@]1(C)CCCN1C(=O)[C@H]1CN1)C(=O)N1CCC[C@H](N1)C(=O)OCC(C)(C)C2
Completion: 1000 to 10000 nM

Prompt: Entry CCn1c(-c2cnccc2COC)c2c3cc(ccc31)-c1cc(O)cc(c1)C[C@H](NC(=O)[C@H](C(C)C)N(C)C(=O)CN(C)C(=O)[C@H]1N[C@@H]1c1ccc(OC)cc1)C(=O)N1CCC[C@H](N1)C(=O)OCC(C)(C)C2 please
Completion: 10 to 100 nM

* * *

pIC50: recorded values
Biological target: NRAS WT (Homo sapiens (Human), UniProt P01111+P62937)
Sequence (P01111 whole entry): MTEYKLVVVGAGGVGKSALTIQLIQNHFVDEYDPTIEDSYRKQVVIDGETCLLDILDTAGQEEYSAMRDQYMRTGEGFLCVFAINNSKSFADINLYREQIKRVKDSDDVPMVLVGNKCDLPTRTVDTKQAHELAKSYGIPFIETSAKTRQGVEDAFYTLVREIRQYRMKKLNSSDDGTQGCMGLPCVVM
Sequence (P62937 whole entry): as the sequence (P62937 whole entry) above
Assay: Ras-Raf disruption/FRET/MOA assay (BRAF RBD, Cyclophilin A)
Type: biochemical
pIC50: −log10 of the molar value.

{"columns": ["COMPOUND", "pIC50"],
 "data": [
  ["CCn1c(-c2cccnc2[C@H](C)OC)c2c3cc(ccc31)-c1cc(O)cc(c1)C[C@H](NC(=O)[C@@H]1[C@@H](C)CCCN1C(C)=O)C(=O)N1CCC[C@H](N1)C(=O)OCC(C)(C)C2 [Compound A324]", "6.00 to 7.00"]
]}

The record that follows has no pIC50 shown yet.
Prompt: Give the measured pIC50 of CCn1c(-c2cccnc2[C@H](C)OC)c2c3cc(ccc31)-c1cc(O)cc(c1)C[C@H](NC(=O)[C@H](C(C)C)N(C)C(=O)[C@]1(F)CCN(C(=O)OC)C1)C(=O)N1CCC[C@H](N1)C(=O)OCC(C)(C)C2 [Compound A616] .
Completion: 6.00 to 7.00
